The origin of these recorded values is paper PMC11620503.

# system_under_test: VIM-2 (Escherichia coli, UniProt Q5U7L7)
# experiment_summary: Ki app determination (Waley's method)
Listed here are compounds together with their documented Ki.

// worked examples, Ki included
{"molecular_string": "NC(=O)[C@@H]1CC[C@@H]2CN1C(=O)N2OS(=O)(=O)O", "Ki": "> 100 µM"}
{"molecular_string": "O=C(NC1CCNCC1)[C@@H]1CC[C@@H]2CN1C(=O)N2OS(=O)(=O)O", "Ki": "> 100 µM"}
{"molecular_string": "C[C@]1(Cn2ccnn2)[C@H](C(=O)O)N2C(=O)C[C@H]2S1(=O)=O", "Ki": "> 100 µM"}
{"molecular_string": "N[C@@H](C(=O)N1CC(Oc2ccc3c(c2C(=O)O)OB(O)CC3)C1)c1c[nH]cn1", "Ki": "1.21 µM"}

We now examine a further compound.
Which measured Ki value corresponds to O=C(O)C[C@@H]1CC[C@H](NC(=O)Cc2cccs2)B(O)O1 ?
> 100 µM

---

Listed here are molecules together with their documented pKi.
# system_under_test: OXA-72 (Acinetobacter baumannii)
# experiment_summary: Ki app determination (Waley's method)
Entry type: numeric. Quantity: pKi, the -log10 of concentration in molar units.

{"molecular_string": "NC(=O)[C@@H]1CC[C@@H]2CN1C(=O)N2OS(=O)(=O)O", "reading": 6.16}
{"molecular_string": "N[C@@H](C(=O)N1CC(Oc2ccc3c(c2C(=O)O)OB(O)CC3)C1)c1c[nH]cn1", "reading": 9.21}

We now examine a further molecule.
Which measured pKi value corresponds to C[C@]1(Cn2ccnn2)[C@H](C(=O)O)N2C(=O)C[C@H]2S1(=O)=O ?
7.10

---

# system_under_test: CTX-M-27 (Escherichia coli, UniProt Q840M4)
# experiment_summary: Ki app determination (Waley's method)
# measurement_setup: read-out: Ki app; CTX-M-27; means from three independent studies
value_type: pKi
Entry type: numeric. Quantity: pKi, the -log10 of concentration in molar units.

Which measured pKi value corresponds to NCCN[C@H]1CC[C@H](CC(=O)N[C@H]2Cc3cccc(C(=O)O)c3OB2O)CC1 ?
10.46

---

# system_under_test: NDM-5 (Klebsiella pneumoniae, UniProt C7C422, M154L/V88L)
# experiment_summary: Ki app determination (Waley's method)
pKi: −log10 of the molar value.
value_type: pKi

// worked examples, pKi included
{"molecular_string": "C[C@]1(Cn2ccnn2)[C@H](C(=O)O)N2C(=O)C[C@H]2S1(=O)=O", "pKi": "< 4.00"}
{"molecular_string": "O=C(NC1CCNCC1)[C@@H]1CC[C@@H]2CN1C(=O)N2OS(=O)(=O)O", "pKi": "< 4.00"}
{"molecular_string": "N[C@@H](C(=O)N1CC(Oc2ccc3c(c2C(=O)O)OB(O)CC3)C1)c1c[nH]cn1", "pKi": 7.50}
{"molecular_string": "O=C(O)C[C@@H]1CC[C@H](NC(=O)Cc2cccs2)B(O)O1", "pKi": "< 4.00"}

We now examine a further molecule.
Which measured pKi value corresponds to NC(=O)[C@@H]1CC[C@@H]2CN1C(=O)N2OS(=O)(=O)O ?
< 4.00

---

# system_under_test: IMP-6 (Serratia marcescens, UniProt P52699, S214G)
# experiment_summary: Ki app determination (Waley's method)
Listed here are compounds together with their documented Ki.

{"molecular_string": "NC(=O)[C@@H]1CC[C@@H]2CN1C(=O)N2OS(=O)(=O)O", "system_under_test": "IMP-6 (Serratia marcescens, UniProt P52699, S214G)", "Ki": "> 100 µM"}
{"molecular_string": "C[C@]1(Cn2ccnn2)[C@H](C(=O)O)N2C(=O)C[C@H]2S1(=O)=O", "system_under_test": "IMP-6 (Serratia marcescens, UniProt P52699, S214G)", "Ki": "> 100 µM"}
{"molecular_string": "O=C(NC1CCNCC1)[C@@H]1CC[C@@H]2CN1C(=O)N2OS(=O)(=O)O", "system_under_test": "IMP-6 (Serratia marcescens, UniProt P52699, S214G)", "Ki": "> 100 µM"}
{"molecular_string": "O=C(O)C[C@@H]1CC[C@H](NC(=O)Cc2cccs2)B(O)O1", "system_under_test": "IMP-6 (Serratia marcescens, UniProt P52699, S214G)", "Ki": "> 100 µM"}

What measured Ki is associated with N[C@@H](C(=O)N1CC(Oc2ccc3c(c2C(=O)O)OB(O)CC3)C1)c1c[nH]cn1 on IMP-6 (Serratia marcescens, UniProt P52699, S214G)?
19.9 µM

---

# system_under_test: CTX-M-14 (Escherichia coli)
# experiment_summary: Ki app determination (Waley's method)
value_type: Ki (nM)
// units = nM; emit number, no label

// worked examples, Ki included
{"molecule": "NC(=O)[C@@H]1CC[C@@H]2CN1C(=O)N2OS(=O)(=O)O [Avibactam, avibactam]", "Ki, nM": 2.35}
{"molecule": "O=C(NC1CCNCC1)[C@@H]1CC[C@@H]2CN1C(=O)N2OS(=O)(=O)O [Relebactam, relebactam]", "Ki, nM": 5.96}
{"molecule": "N[C@@H](C(=O)N1CC(Oc2ccc3c(c2C(=O)O)OB(O)CC3)C1)c1c[nH]cn1 [KSP-1007]", "Ki, nM": 0.153}

Which measured Ki value corresponds to O=C(O)C[C@@H]1CC[C@H](NC(=O)Cc2cccs2)B(O)O1 [Vaborbactam, vaborbactam] ?
392

---

# Tested on: MEM-, imipenem/relebactam-, and ceftolozane/tazobactam-nonsusceptible P. aeruginosa
# experiment_summary: MIC, broth microdilution
# Format: cell-based, Pseudomonas aeruginosa
# measurement_setup: MEM-nonsusceptible Pseudomonas aeruginosa (76); CLSI breakpoints; marked c: breakpoints for β-lactam alone
value_type: CLSI MIC interpretation R (resistant) (%)
// units = %; emit number, no label

{"compound": "C[C@H]1COc2c(N3CCN(C)CC3)c(F)cc3c(=O)c(C(=O)O)cn1c23 [Levofloxacin]", "reading": 89.5}
{"compound": "C[C@@H](O)[C@H]1C(=O)N2C(C(=O)O)=C(S[C@@H]3CN[C@H](C(=O)N(C)C)C3)[C@H](C)[C@H]12 [MEM, meropenem]", "reading": 85.5}
{"compound": "NCC[C@H](O)C(=O)N[C@@H]1C[C@H](N)[C@@H](O[C@H]2O[C@H](CN)[C@@H](O)[C@H](O)[C@H]2O)[C@H](O)[C@H]1O[C@H]1O[C@H](CO)[C@@H](O)[C@H](N)[C@H]1O [Amikacin]", "reading": 36.8}
{"compound": "CC(C)(O/N=C(\\C(=O)N[C@@H]1C(=O)N2C(C(=O)[O-])=C(C[N+]3(CCNC(=O)c4ccc(O)c(O)c4Cl)CCCC3)CS[C@H]12)c1csc(N)n1)C(=O)O [FDC, cefiderocol]", "reading": 0}
{"compound": "CC(C)(O/N=C(\\C(=O)N[C@@H]1C(=O)N2C(C(=O)[O-])=C(C[n+]3ccccc3)CS[C@H]12)c1csc(N)n1)C(=O)O [CAZ, ceftazidime]", "reading": 68.4}
{"compound": "C[C@H]1[C@H](NC(=O)/C(=N\\OC(C)(C)C(=O)O)c2csc(N)n2)C(=O)N1S(=O)(=O)O [ATM, aztreonam]", "reading": 56.6}

We now examine a further compound.
Which measured CLSI MIC interpretation R (resistant) value corresponds to C[C@@H](O)[C@H]1C(=O)N2C(C(=O)O)=C(SCCN=CN)C[C@H]12 [Imipenem] ?
93.4

---

# system_under_test: SHV-5 (Klebsiella pneumoniae, UniProt P0A3M1)
# experiment_summary: Ki app determination (Waley's method)
value_type: pKi
Entry type: numeric. Quantity: pKi, the -log10 of concentration in molar units.

{"molecule": "C[C@]1(Cn2ccnn2)[C@H](C(=O)O)N2C(=O)C[C@H]2S1(=O)=O [Tazobactam, tazobactam]", "reading": 8.74}
{"molecule": "NC(=O)[C@@H]1CC[C@@H]2CN1C(=O)N2OS(=O)(=O)O [Avibactam, avibactam]", "reading": 8.67}
{"molecule": "O=C(NC1CCNCC1)[C@@H]1CC[C@@H]2CN1C(=O)N2OS(=O)(=O)O [Relebactam, relebactam]", "reading": 8.20}
{"molecule": "N[C@@H](C(=O)N1CC(Oc2ccc3c(c2C(=O)O)OB(O)CC3)C1)c1c[nH]cn1 [KSP-1007]", "reading": 6.90}

We now examine a further molecule.
Which measured pKi value corresponds to O=C(O)C[C@@H]1CC[C@H](NC(=O)Cc2cccs2)B(O)O1 [Vaborbactam, vaborbactam] ?
5.85

---

# system_under_test: OXA-66 (Acinetobacter baumannii)
# experiment_summary: Ki app determination (Waley's method)
value_type: pKi
Entry type: numeric. Quantity: pKi, the -log10 of concentration in molar units.

{"molecular_string": "NC(=O)[C@@H]1CC[C@@H]2CN1C(=O)N2OS(=O)(=O)O", "pKi": 5.13}

We now examine a further molecule.
What measured pKi is associated with N[C@@H](C(=O)N1CC(Oc2ccc3c(c2C(=O)O)OB(O)CC3)C1)c1c[nH]cn1 on OXA-66 (Acinetobacter baumannii)?
8.24
